- target: T1, full length human OX40L expressed on CHO cells (human, UniProt P23510 1-183)
- T1 construct: CHO K1 stably transfected as described for CAKI cells; also called CHO-hOX40L; hOX40L expressing CHO cells
- T1 sequence: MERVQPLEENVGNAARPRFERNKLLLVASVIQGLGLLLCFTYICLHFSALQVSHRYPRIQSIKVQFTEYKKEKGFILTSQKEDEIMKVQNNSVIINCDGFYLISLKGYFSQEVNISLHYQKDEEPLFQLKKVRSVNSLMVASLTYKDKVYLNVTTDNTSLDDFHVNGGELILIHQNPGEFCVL
- measurement.notes: FACS binding to CHO cells, anti-c-myc detection
- Procedure: Transfection of CHO K1 with the respective expression plasmid DNA and selection of clones with high expression levels was performed as described in Example 1. Binding of the Nanobodies to the cell surface expressed OX40L was assessed by FACS analysis of cells as described below. After washing bound Nanobodies were detected in FACSArray™ using mouse anti-c-myc and PE conjugated goat anti-mouse IgG.
value.kind: pEC50
// pEC50: -log10(molar conc.)

binder	pEC50
OX40L15B07 (VHH, monovalent Nanobody from E. coli; not shown: C-terminal c-myc and His6 tag) VHH: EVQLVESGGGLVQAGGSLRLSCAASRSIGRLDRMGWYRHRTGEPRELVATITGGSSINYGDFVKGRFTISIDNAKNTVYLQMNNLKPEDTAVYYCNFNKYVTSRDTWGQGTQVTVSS	8.61
OX40L18E09 (VHH, monovalent Nanobody from E. coli; not shown: C-terminal c-myc and His6 tag) VHH: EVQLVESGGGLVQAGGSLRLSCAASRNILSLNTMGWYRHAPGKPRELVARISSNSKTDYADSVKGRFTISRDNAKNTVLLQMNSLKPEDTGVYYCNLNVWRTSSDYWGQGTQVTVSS	8.65
OX40L01E07 (VHH, monovalent Nanobody from E. coli; not shown: C-terminal c-myc and His6 tag) VHH: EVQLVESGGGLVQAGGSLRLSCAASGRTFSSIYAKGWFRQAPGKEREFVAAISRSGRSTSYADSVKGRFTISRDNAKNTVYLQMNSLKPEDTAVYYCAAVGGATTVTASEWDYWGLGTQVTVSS	8.39
OX40L01E10 (VHH, monovalent Nanobody from E. coli; not shown: C-terminal c-myc and His6 tag) VHH: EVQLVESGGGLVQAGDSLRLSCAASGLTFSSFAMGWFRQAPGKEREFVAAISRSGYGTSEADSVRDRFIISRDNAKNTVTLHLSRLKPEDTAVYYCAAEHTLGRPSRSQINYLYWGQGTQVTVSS	8.42

# input for lookup
Q) Given the entry OX40L01B11 (VHH, monovalent Nanobody from E. coli; not shown: C-terminal c-myc and His6 tag) VHH: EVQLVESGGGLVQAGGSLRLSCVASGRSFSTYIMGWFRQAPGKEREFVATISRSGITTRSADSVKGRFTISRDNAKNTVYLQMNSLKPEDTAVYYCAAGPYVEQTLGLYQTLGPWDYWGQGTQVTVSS , report its measured pEC50.
A) 8.53
